Each item that follows carries a reported IC50.
Test system: PC-3
Experiment: Antiproliferative activity against human PC-3 cells incubated by 48 hrs by MTT assay
Format: functional, cell-based
Details: PC-3, 48 h
Response body: numeric value in µM, unit text excluded.

molecule | value units | IC50
O=C1c2ccccc2-n2c1nc1cccc(F)c1c2=O | µM | 12.4
O=C1c2cc([N+](=O)[O-])ccc2-n2c1nc1ccccc1c2=O | µM | 11.8

Task item: Please tell me: IC50 of "O=C1c2cc(F)ccc2-n2c1nc1ccccc1c2=O" , system PC-3?
Reply: 10.6

---

Each item that follows carries a reported GI50.
Test system: A498
Assay: Growth inhibition of human A498 cells assessed as reduction in cell viability
Format: functional

Task item: Could you tell me which GI50 is on file for "C[C@]1(O)c2ccccc2-n2c1nc1ccccc1c2=O" ?
Reply: > 100 µM

Task item: Could you tell me which GI50 is on file for "O=c1c2ccccc2nc2n1-c1ccccc1[C@@]2(O)OCCOc1ccccc1" ?
Reply: > 100 µM

Task item: Could you tell me which GI50 is on file for "CCCC[C@]1(O)c2ccccc2-n2c1nc1ccccc1c2=O" ?
Reply: > 100 µM

---

Test system: A549
Experiment: Antiproliferative activity against human A549 cells assessed as inhibition of cell growth
Format: functional, cell-based
Rule: IC50 below 30 µM gives true. Equal to or above 30 µM gives false.

compound | assigned class
COc1ccc(-c2csc(N/N=C3/c4ccccc4N4C(=O)C5C=CC=CC5=NC34)n2)cc1 (configuration not stated) | false
O=C1C2C=CC=CC2=NC2/C(=N\Nc3nc(-c4ccc(F)cc4)cs3)c3ccccc3N12 (configuration not stated) | true
O=c1c2ccccc2nc2n1-c1ccccc1/C2=N/N=c1/scc(-c2ccc(F)cc2)n1-c1ccccc1 | false
O=c1c2ccccc2nc2n1-c1ccccc1/C2=N/N=c1/scc(-c2ccccc2)n1-c1ccccc1 | false
O=C1C2C=CC=CC2=NC2/C(=N\Nc3nc(-c4ccc(O)cc4)cs3)c3ccccc3N12 (configuration not stated) | true
O=C1C2C=CC=CC2=NC2/C(=N\Nc3nc(-c4ccc([N+](=O)[O-])cc4)cs3)c3ccccc3N12 (configuration not stated) | false

Consider the record given below.
Task item: Hello, I'm reviewing records and need to know if IC50 of O=C1C2C=CC=CC2=NC2/C(=N\Nc3nc(-c4ccc(Cl)cc4)cs3)c3ccccc3N12 (configuration not stated) is below 30 µM. Could you check?
Reply: true
